System: K562
test: Growth inhibition of human K562 cells at 1 uM after 24 hrs by MTT assay relative to control
Format: functional
test-context: K562, 24 h, read-out: GI

compound	result-unit	inhibition of growth at 1 µM
CCOP(=O)(OCC)C(Nc1cccc(Br)c1)c1ccc(-c2ccncc2)cc1 (stereo not given)	%	41.7
CCOP(=O)(OCC)C(Nc1ccc(Cl)c([N+](=O)[O-])c1)c1ccc(-c2ccncc2)cc1 (stereo not given)	%	14.3
CCOP(=O)(OCC)C(Nc1cccc([N+](=O)[O-])c1)c1ccc(-c2ccncc2)cc1 (stereo not given)	%	0
CCOP(=O)(OCC)C(Nc1nc2ccc([N+](=O)[O-])cc2s1)c1ccc(-c2ccncc2)cc1 (stereo not given)	%	0.9
CCOP(=O)(OCC)C(Nc1ccncc1)c1ccc(-c2ccncc2)cc1 (stereo not given)	%	0
